Below is a list of entries, each paired with its recorded CL free value.
# Test summary: Intrinsic unbound clearance in human liver microsomes
# Type: ADME, microsome
Answer format: numeric, mL/min/kg implied, no suffix.

1. Cn1cc2c3c(c[nH]c3c1=O)CN(CC1CC1)c1ccc(CS(C)(=O)=O)cc1-2: 183
2. Cn1cc2c3c(c[nH]c3c1=O)CN(c1ccccn1)c1ccc(CS(C)(=O)=O)cc1-2: 50

[ask] If you can, please state the reported CL free value of Cn1cc2c3c(c[nH]c(=O)c31)-c1cc(CS(C)(=O)=O)ccc1N(c1ccc(F)cc1)C2 .
[reply] 91.7

###

Below is a list of entries, each paired with its recorded AUC value.
# Test summary: AUC in mouse at 10 mg/kg, po
# Type: ADME, organism-based
# Experimental context: in vivo
Answer format: numeric, µM·h implied, no suffix.

1) Cn1cc2c3c(c[nH]c(=O)c31)CN(CC1CC1)c1ccc(CS(C)(=O)=O)cc1-2: 0.64
2) Cn1cc2c3c(c[nH]c(=O)c31)-c1cc(CS(C)(=O)=O)ccc1N(c1ccc(F)cc1)C2: 2.8
3) Cn1cc2c3c(c[nH]c(=O)c31)-c1cc(CS(C)(=O)=O)ccc1N(c1ccccn1)C2: 1.2
4) Cn1cc2c3c(c[nH]c3c1=O)CN(c1ccc(F)cc1)c1ccc(CS(C)(=O)=O)cc1-2: 0.67
5) Cn1cc2c3c(c[nH]c3c1=O)CN(c1ccc(F)cc1F)c1ccc(CS(C)(=O)=O)cc1-2: 12
6) Cn1cc2c3c(c[nH]c3c1=O)CN(CC1CC1)c1ccc(CS(C)(=O)=O)cc1-2: 0.16

[ask] If you can, please state the reported AUC value of Cn1cc2c3c(c[nH]c3c1=O)CN(C1CCC(F)(F)CC1)c1ccc(CS(C)(=O)=O)cc1-2 .
[reply] 0.13

Measured values drawn from ChEMBL document CHEMBL4190379 for this set.
